protocolText: Gelling ability of basic amino acid derivatives (test tube tilting, visual appearance)
Format: physicochemical
Parameters: key: GT: transparent gel; GTL: translucent gel; GO: opaque gel
appliedConditions: saline; heated to 100° C., stood at 25° C. for 2 hr
metricName: gel appearance

Examples from the recorded data:
input: If you can, please state the reported gel appearance value of CCCCCCCCCCCC(=O)NCCCC[C@H](NC(=O)CC(CCCCCCCCCC)C(=O)[O-])C(=O)OCC.[Na+] (stereo partly shown) .
output: GTL

input: If you can, please state the reported gel appearance value of CCCCCCCCCCCC(=O)NCCCC[C@H](NC(=O)CC(CCCCCCCCCC)C(=O)[O-])C(=O)OCC.[K+] (stereo partly shown) .
output: GTL

input: If you can, please state the reported gel appearance value of `CCCCCCCCCCCC(=O)NCCCC[C@H](NC(=O)CCCCCCCCC(=O)[O-])C(=O)O.[Na+]` .
output: GT

input: If you can, please state the reported gel appearance value of CCCCCCCCCCCC(=O)NCCCC[C@H](NC(=O)CC(CCCCCCCCCC)C(=O)[O-])C(=O)O.[K+] (stereo partly shown) .
output: GTL

input: If you can, please state the reported gel appearance value of `CCCCCCCCCCCC(=O)NCCCC[C@H](NC(=O)CCCCCCCCC(=O)[O-])C(=O)O.[K+]` .
output: GT

Next:
input: If you can, please state the reported gel appearance value of CCCCCCCCCCCC(=O)NCCCC[C@H](NC(=O)CC(CCCCCCCCCC)C(=O)[O-])C(=O)O.[Na+] (stereo partly shown) .
output: GTL

input: If you can, please state the reported gel appearance value of `CCCCCCCCCCCC(=O)NCCCC[C@H](NC(=O)CCCCCCC(=O)[O-])C(=O)O.[Na+]` .
output: GT

Source listed as patent US9198846B2.
